- Test system: T98G (Glioblastoma)
- procedure-summary: Bliss excess, mean over the matrix (fraction); higher = more synergy
Overview of reported Bliss excess across a group of compounds:

compound	Bliss excess
Cc1c2c(nn1C)CSCc1cc(n(C)n1)CSc1cc(c3ccccc3c1)OCCCc1c(C(=O)O)n(C)c3c-2c(Cl)ccc13 [AZD5991] + CCN(CCO)CCCOc1ccc2c(Nc3cc(CC(=O)Nc4cccc(F)c4)[nH]n3)ncnc2c1 [AZD2811] (first compound max 1 µM, 7x7, partner max 1 µM)	-0.0339
CN(C)CCCOc1ccc(-c2ccc3ncc4c(c3c2)n(C2CCOCC2)c(=O)n4C)cn1 [AZD0156] + O=C(c1cc(Cc2n[nH]c(=O)c3ccccc23)ccc1F)N1CCN(C(=O)C2CC2)CC1 [Olaparib] (first compound max 3 µM, partner max 3 µM)	-0.0085
CN(CCO)CC[C@H](CSc1ccccc1)Nc1ccc(S(=O)(=O)NC(=O)c2ccc(N3CCC([C@@H](O)c4ccccc4-c4ccc(Cl)cc4)CC3)cc2)cc1S(=O)(=O)C(F)(F)F [AZD4320] + CCN(CCO)CCCOc1ccc2c(Nc3cc(CC(=O)Nc4cccc(F)c4)[nH]n3)ncnc2c1 [AZD2811] (first compound max 1 µM, 7x7, partner max 1 µM)	0.0346
CN(C)CCCOc1ccc(-c2ccc3ncc4c(c3c2)n(C2CCOCC2)c(=O)n4C)cn1 [AZD0156] + CCN(CCO)CCCOc1ccc2c(Nc3cc(CC(=O)Nc4cccc(F)c4)[nH]n3)ncnc2c1 [AZD2811] (first compound max 1 µM, 7x7, partner max 1 µM)	-0.0655
O=C(c1cc(Cc2n[nH]c(=O)c3ccccc23)ccc1F)N1CCN(C(=O)C2CC2)CC1 [Olaparib] + COc1nnc2ccc(N3CCC(c4ccc(OCCN5CCN(C)C(=O)[C@H]5C)cc4)CC3)nn12 [AZD5153] (first compound max 10 µM, 7x7, partner max 1 µM)	-0.0501
Cn1cnc2c(F)c(Nc3ccc(Br)cc3Cl)c(C(=O)NOCCO)cc21 [Selumetinib] + CCN(CCO)CCCOc1ccc2c(Nc3cc(CC(=O)Nc4cccc(F)c4)[nH]n3)ncnc2c1 [AZD2811] (first compound max 10 µM, 7x7, partner max 1 µM)	-0.0104
COc1nnc2ccc(N3CCC(c4ccc(OCCN5CCN(C)C(=O)[C@H]5C)cc4)CC3)nn12 [AZD5153] + C=CCn1c(=O)c2cnc(Nc3ccc(N4CCN(C)CC4)cc3)nc2n1-c1cccc(C(C)(C)O)n1 [AZD1775] (first compound max 1 µM, partner max 1 µM)	-0.0092

----------
- Tested on: CCRF-CEM (T-Lymphoblastic Leukemia)
- procedure-summary: combination Emax (second highest fraction inhibited in the dose matrix, 72 h); higher = more inhibition; extreme values may be limits of the assay
Each entry below carries its reported combination Emax.

compound	combination Emax
COc1cccc(OCCCN)c1-c1cc(Nc2cnc(C#N)cn2)n[nH]1 [Prexasertib] + CN(C)CCCOc1ccc(-c2ccc3ncc4c(c3c2)n(C2CCOCC2)c(=O)n4C)cn1 [AZD0156] (first compound max 1 µM, 7x7, partner max 1 µM)	1
COc1cccc(OCCCN)c1-c1cc(Nc2cnc(C#N)cn2)n[nH]1 [Prexasertib] + Cc1cc2ncnn2cc1Nc1ncc2c(n1)n(C1CCOCC1)c(=O)n2C [AZD7648] (first compound max 1 µM, 7x7, partner max 10 µM)	1
C[C@@H](Oc1cc(-c2cnn(C3CCNCC3)c2)cnc1N)c1c(Cl)ccc(F)c1Cl [Crizotinib] + Cn1cnc2c(F)c(Nc3ccc(Br)cc3Cl)c(C(=O)NOCCO)cc21 [Selumetinib] (first compound max 10 µM, 7x7, partner max 10 µM)	0.854
C[C@@H]1COCCN1c1cc(C2([S@](C)(=N)=O)CC2)nc(-c2ccnc3[nH]ccc23)n1 [AZD6738] + C1CC(C1)(C(=O)[O-])C(=O)[O-].N.N.[Pt+2] [Carboplatin] (first compound max 10 µM, 7x7, partner max 10 µM)	0.977
C=CCn1c(=O)c2cnc(Nc3ccc(N4CCN(C)CC4)cc3)nc2n1-c1cccc(C(C)(C)O)n1 [AZD1775] + O=C(c1cc(Cc2n[nH]c(=O)c3ccccc23)ccc1F)N1CCN(C(=O)C2CC2)CC1 [Olaparib] (first compound max 1 µM, partner max 10 µM)	1
CC1(C)CCC(CN2CCN(c3ccc(C(=O)NS(=O)(=O)c4ccc(NCC5CCOCC5)c([N+](=O)[O-])c4)c(Oc4cnc5[nH]ccc5c4)c3)CC2)=C(c2ccc(Cl)cc2)C1 [Venetoclax] + CS(=O)(=O)CCNCc1ccc(-c2ccc3ncnc(Nc4ccc(OCc5cccc(F)c5)c(Cl)c4)c3c2)o1 [Lapatinib] (first compound max 1 µM, 7x7, partner max 10 µM)	0.501

----------
- Tested on: CCRF-CEM (T-Lymphoblastic Leukemia)
- procedure-summary: combination Emax (second highest fraction inhibited in the dose matrix, 72 h); higher = more inhibition; extreme values may be limits of the assay
Measured combination Emax values are reported for all entries that follow.
result-type: combination Emax

compound	experimental-value
CC1(C)CCC(CN2CCN(c3ccc(C(=O)NS(=O)(=O)c4ccc(NCC5CCOCC5)c([N+](=O)[O-])c4)c(Oc4cnc5[nH]ccc5c4)c3)CC2)=C(c2ccc(Cl)cc2)C1 [Venetoclax] + C[C@@H]1COCCN1C2=NC(=NC(=C2)C3(CC3)[S@](=N)(=O)C)C4=C5C=CNC5=NC=C4 [AZD6738] (first compound max 1 µM, 7x7, partner max 10 µM)	1
COc1nnc2ccc(N3CCC(c4ccc(OCCN5CCN(C)C(=O)[C@H]5C)cc4)CC3)nn12 [AZD5153] + C=CCn1c(=O)c2cnc(Nc3ccc(N4CCN(C)CC4)cc3)nc2n1-c1cccc(C(C)(C)O)n1 [AZD1775] (first compound max 1 µM, partner max 1 µM)	1
C[C@@H]1COCCN1c1cc(C2([S@](C)(=N)=O)CC2)nc(-c2ccnc3[nH]ccc23)n1 [AZD6738] + O=C(c1cc(Cc2n[nH]c(=O)c3ccccc23)ccc1F)N1CCN(C(=O)C2CC2)CC1 [Olaparib] (first compound max 10 µM, 7x7, partner max 10 µM)	1

----------
- System: 42-MG-BA (Glioblastoma)
- procedure-summary: combination Emax (second highest fraction inhibited in the dose matrix, 72 h); higher = more inhibition; extreme values may be limits of the assay
A collection of compounds and their measured combination Emax
result-type: combination Emax

compound	result-type	experimental-value
CCN(CCO)CCCOc1ccc2c(Nc3cc(CC(=O)Nc4cccc(F)c4)[nH]n3)ncnc2c1 [AZD2811] + C[C@@H]1COCCN1C2=NC(=NC(=C2)C3(CC3)[S@](=N)(=O)C)C4=C5C=CNC5=NC=C4 [AZD6738] (first compound max 1 µM, 7x7, partner max 10 µM)	combination Emax	0.568
CN(C)CCCOc1ccc(-c2ccc3ncc4c(c3c2)n(C2CCOCC2)c(=O)n4C)cn1 [AZD0156] + O=C(c1cc(Cc2n[nH]c(=O)c3ccccc23)ccc1F)N1CCN(C(=O)C2CC2)CC1 [Olaparib] (first compound max 3 µM, partner max 3 µM)	combination Emax	0.402
CC(=O)Nc1cccc(-n2c(=O)n(C3CC3)c(=O)c3c(Nc4ccc(I)cc4F)n(C)c(=O)c(C)c32)c1 [Trametinib] + Cc1nc(-c2cn3c(n2)-c2ccc(-c4cnn(C(C)(C)C(N)=O)c4)cc2OCC3)n(C(C)C)n1 [Taselisib] (first compound max 1 µM, 7x7, partner max 10 µM)	combination Emax	0.971
CC1(C)CCC(CN2CCN(c3ccc(C(=O)NS(=O)(=O)c4ccc(NCC5CCOCC5)c([N+](=O)[O-])c4)c(Oc4cnc5[nH]ccc5c4)c3)CC2)=C(c2ccc(Cl)cc2)C1 [Venetoclax] + CN(C)CCCOc1ccc(-c2ccc3ncc4c(c3c2)n(C2CCOCC2)c(=O)n4C)cn1 [AZD0156] (first compound max 1 µM, 7x7, partner max 1 µM)	combination Emax	0.367
CC(=O)c1c(C)c2cnc(Nc3ccc(N4CCNCC4)cn3)nc2n(C2CCCC2)c1=O [Palbociclib] + Cc1c2c(nn1C)CSCc1cc(n(C)n1)CSc1cc(c3ccccc3c1)OCCCc1c(C(=O)O)n(C)c3c-2c(Cl)ccc13 [AZD5991] (first compound max 10 µM, 7x7, partner max 1 µM)	combination Emax	0.391
Cc1c2c(nn1C)CSCc1cc(n(C)n1)CSc1cc(c3ccccc3c1)OCCCc1c(C(=O)O)n(C)c3c-2c(Cl)ccc13 [AZD5991] + C[C@@H]1COCCN1C2=NC(=NC(=C2)C3(CC3)[S@](=N)(=O)C)C4=C5C=CNC5=NC=C4 [AZD6738] (first compound max 1 µM, 7x7, partner max 10 µM)	combination Emax	1
CCc1c2c(nc3ccc(O)cc13)-c1cc3c(c(=O)n1C2)COC(=O)[C@]3(O)CC [SN-38] + CN(C)CCCOc1ccc(-c2ccc3ncc4c(c3c2)n(C2CCOCC2)c(=O)n4C)cn1 [AZD0156] (first compound max 0.3 µM, 7x7, partner max 1 µM)	combination Emax	1

----------
- System: LB831-BLC (Bladder Carcinoma)
- procedure-summary: Bliss excess, mean over the matrix (fraction); higher = more synergy
// reported Bliss excess per item

compound	Bliss excess
CN(CCO)CC[C@H](CSc1ccccc1)Nc1ccc(S(=O)(=O)NC(=O)c2ccc(N3CCC([C@@H](O)c4ccccc4-c4ccc(Cl)cc4)CC3)cc2)cc1S(=O)(=O)C(F)(F)F [AZD4320] + CC(=O)O[C@H]1C(=O)[C@@]2(C)[C@H]([C@H](OC(=O)c3ccccc3)[C@]3(O)C[C@H](OC(=O)[C@H](O)[C@@H](NC(=O)c4ccccc4)c4ccccc4)C(C)=C1C3(C)C)[C@]1(OC(C)=O)CO[C@@H]1C[C@@H]2O [Paclitaxel] (first compound max 1 µM, 7x7, partner max 3 µM)	0.104
NC1(C(=O)N[C@@H](CCO)c2ccc(Cl)cc2)CCN(c2ncnc3[nH]ccc23)CC1 [Capivasertib] + CC(=O)c1c(C)c2cnc(Nc3ccc(N4CCNCC4)cn3)nc2n(C2CCCC2)c1=O [Palbociclib] (first compound max 10 µM, 7x7, partner max 10 µM)	-0.0586
CN(CCO)CC[C@H](CSc1ccccc1)Nc1ccc(S(=O)(=O)NC(=O)c2ccc(N3CCC([C@@H](O)c4ccccc4-c4ccc(Cl)cc4)CC3)cc2)cc1S(=O)(=O)C(F)(F)F [AZD4320] + Cc1cc2ncnn2cc1Nc1ncc2c(n1)n(C1CCOCC1)c(=O)n2C [AZD7648] (first compound max 1 µM, 7x7, partner max 10 µM)	0.0041
